assay-system: KiSS-1 receptor (Homo sapiens)
protocol-notes: Human kisspeptin (KISS1R) small molecule agonists, calcium flux assay in KISS1R-HEK293 cells (AID 1920064); note: % is set by controls: 0 for no effect and ±100 for the full control effect
test-context: KISS1R-HEK293, calcium flux fluorescence, agonist; series mostly up to 76.8 µM
Activity calls are given as the source filed them. Calls come from the whole dose curve; as a rule, active = well fitted activation curve with a large enough effect in the repeat runs; inconclusive = weak or mixed curves; inactive = flat fitted curve, though single readings scatter. Square brackets hold non-standard residues; d marks the D form. Peptide text beside a SMILES is read from it. * marks the point of attachment. Sta = CC(C)C[C@H](N)[C@@H](O)CC(=O)O; Isovaleryl = CC(C)CC(=O)*
property-name: activation

Recorded activation, per entry:
# molecule, recorded-measurement
records = [
    ("CCOC(=O)C(O)c1ccccc1 (configuration not stated)", "inactive"),
    ("CCCCNc1c(C(=O)OCC)c(C)nc2c1cnn2CC", "inactive"),
    ("CC(O)CN(CCCN(C)C)CCCN(C)C (configuration not stated)", "inactive"),
    ("O=C1c2ccccc2C(=O)c2cc(Cl)ccc21", "-0.408% [at 6.97 µM] (inactive)"),
    ("Fc1ccc([C@@H]2CCNC[C@H]2COc2ccc3c(c2)OCO3)cc1", "inactive"),
    ("FC1(F)C(F)(F)C(F)(F)C2(F)C(F)(C1(F)F)C(F)(F)C(F)(F)C1(F)C(F)(F)C(F)(F)C(F)(F)C(F)(F)C12F (configuration not stated)", "inactive"),
    ("CC1(C)CC(OC(=O)CCCCCCCCC(=O)OC2CC(C)(C)NC(C)(C)C2)CC(C)(C)N1", "3.13% [at 15.8 µM] (inactive)"),
    ("CCCCCCCCCCCCC", "inactive"),
    ("CC(C)CC(=O)N[C@H](C(=O)N[C@H](C(=O)N[C@@H](CC(C)C)[C@@H](O)CC(=O)N[C@@H](C)C(=O)N[C@@H](CC(C)C)[C@@H](O)CC(=O)O)C(C)C)C(C)C (Isovaleryl-VV[Sta]A[Sta]-OH)", "inactive"),
    ("CCCCC(CC)COC(=O)COc1ccc(Cl)cc1C (configuration not stated)", "inactive"),
]

Returns the measured activation for the input molecule. Input: C=CC(C)(O)CCCC(C)CCCC(C)CCCC(C)C (configuration not stated)
inactive

Please do the same for CCCCOC(=O)C(C)O (configuration not stated) as well.
inactive

====

assay-system: KiSS-1 receptor (Homo sapiens)
protocol-notes: Human kisspeptin (KISS1R) small molecule agonists, calcium flux assay in KISS1R-HEK293 cells (AID 1920064); note: % is set by controls: 0 for no effect and ±100 for the full control effect
test-context: KISS1R-HEK293, calcium flux fluorescence, agonist; series mostly up to 76.8 µM
Calls of active or inactive are those of the source. Calls come from the whole dose curve; as a rule, active = well fitted activation curve with a large enough effect in the repeat runs; inconclusive = weak or mixed curves; inactive = flat fitted curve, though single readings scatter.
property-name: activation

Recorded activation, per entry:
# compound, activation
records = [
    ("C/C=C/C=C/COC(=O)C(C)C", "inactive"),
    ("CCC(=O)C(=O)CC", "inactive"),
    ("CCCCCCCC/C=C\\CCCCCCCCOCCO", "inactive"),
    ("C=CC(C)(CCC=C(C)C)OC(=O)C(C)C (stereo not given)", "inactive"),
    ("COc1cc2c3cc1Oc1cc(ccc1O)C[C@@H]1c4c(cc(OC)c(O)c4Oc4ccc(cc4)C[C@@H]3N(C)CC2)CC[N+]1(C)C", "inactive"),
    ("O=C1C(CCS(=O)c2ccccc2)C(=O)N(c2ccccc2)N1c1ccccc1 (stereo not given)", "inactive"),
    ("CCN(CC)c1ccc(C(=C2C=CC(=[N+](CC)CC)C=C2)c2ccc(S(=O)(=O)O)cc2S(=O)(=O)[O-])cc1", "inactive"),
    ("C[C@H]1NCc2cc(-c3ccc4c(=O)c(C(=O)O)cn(C5CC5)c4c3OC(F)F)ccc21", "-1.09% [at 15.8 µM] (inactive)"),
    ("CCN1CCN(c2cc(-c3ccc(F)cc3)c3c(n2)CCCCCC3)CC1", "8.32% [at 15.8 µM] (inactive)"),
]

Consider the record given below.
Returns the measured activation for the input compound. Input: CC1=C(/C=C/C(C)=C/C=C/C(C)=C\C(=O)O)C(C)(C)CCC1
inactive

====

protocol-notes: Nuclear factor erythroid 2-related factor 2/antioxidant responsive element (Nrf2/ARE) small molecule agonists: luciferase reporter gene qHTS assay in human keratinocytes (AID 1919969); note: nearly all actives have a fitted effect of over 35% in size; note: potency is the fitted concentration of half-maximal effect
test-context: KeratinoSens HaCaT ARE-luciferase, luminescence, 24 h; series mostly up to 92.4 µM
Records with an inconclusive call do not appear. Activity calls are given as the source filed them. The call rests on the fitted dose curve.
property-name: Potency

# compound, property-name, recorded-measurement
records = [
    ("Cc1cnc(NS(=O)(=O)c2ccc(N)cc2)nc1", "Potency", "inactive"),
    ("Cc1cc(=O)oc2cc(O)cc(O)c12", "Potency", "inactive"),
    ("CCc1cc(S(=O)(=O)O)c2cc(C(C)C)cccc1-2", "Potency", "inactive"),
    ("CC(C)(C)c1cc(C=O)cc(C(C)(C)C)c1O", "Potency", "inactive"),
    ("CC1=NS(=O)(=O)c2cc(Cl)ccc2N1", "Potency", "inactive"),
    ("CCC(C)N(C)C(=O)c1cc2ccccc2c(-c2ccccc2Cl)n1 (stereo unspecified)", "Potency", "inactive"),
]

Returns the measured Potency for the input compound. Input: CC(C)SCc1ccco1
inactive

Please do the same for CC1=NC(C)OC1C (stereo unspecified) as well.
61.1 µM (active)

Please do the same for O=S1OCCO1 as well.
inactive

Please do the same for CC(=O)N[C@@H](CCC(N)=O)C(=O)O as well.
inactive

Please do the same for Cc1nc2ccccn2c(=O)c1CCN1CCC(C(=O)c2ccc(F)cc2)CC1 as well.
inactive

Please do the same for C=CC(=O)OCCOCC(CC)(COCCOC(=O)C=C)COCCOC(=O)C=C as well.
12.7 µM (active)

Please do the same for CN(C(=O)CCCOc1ccc2[nH]c(=O)ccc2c1)C1CCCCC1 as well.
inactive

====

protocol-notes: Nuclear factor erythroid 2-related factor 2/antioxidant responsive element (Nrf2/ARE) small molecule agonists: luciferase reporter gene qHTS assay in human keratinocytes (AID 1919969); note: nearly all actives have a fitted effect of over 35% in size
test-context: KeratinoSens HaCaT ARE-luciferase, luminescence, 24 h; series mostly up to 92.4 µM
Inconclusive results are not listed. Activity calls are given as the source filed them. Calls follow the shape of the full dose curve.
Your response should consist of one outcome taken from active, inactive

Could you check what this test reported for CCOc1cc([N+](=O)[O-])c(OCC)cc1N1CCOCC1 ?
inactive

Please do the same for Cc1ccc(OC(=O)c2ccccc2O)cc1 as well.
inactive

Please do the same for Cc1cc(NC(=O)C2=C(O)c3ccccc3S(=O)(=O)N2C)no1 as well.
inactive

Please do the same for CCCCCCCCCCCCCCCCCCOS(=O)(=O)O as well.
inactive

Please do the same for N#CSc1ccc(N)c([N+](=O)[O-])c1 as well.
active

Please do the same for Nc1ccc(C(=O)OCC(O)CO)cc1 (stereo not drawn) as well.
inactive

Please do the same for Cc1cc2c(cc1S(N)(=O)=O)S(=O)(=O)CCC2 as well.
inactive

Please do the same for COC(=O)CCc1ccc(OCC(O)CNC(C)C)cc1 (stereo not drawn) as well.
inactive

====

protocol-notes: Nuclear factor erythroid 2-related factor 2/antioxidant responsive element (Nrf2/ARE) small molecule agonists: luciferase reporter gene qHTS assay in human keratinocytes (AID 1919969); note: nearly all actives have a fitted effect of over 35% in size
test-context: KeratinoSens HaCaT ARE-luciferase, luminescence, 24 h; series mostly up to 92.4 µM
Inconclusive results are not listed. Active and inactive are the calls of the source. The call rests on the fitted dose curve.
Your response should consist of one outcome taken from yes (1) (active), no (0) (inactive)

# compound, category-label
rows = [
    ("C1OCOCO1", "no (0)"),
]

Could you check what this test reported for CCOC(=O)O[C@H](C)OC(=O)c1ccc2c(c1)cc(C(=O)NC1CCN(C(C)C)CC1)n2Cc1cc(-c2ccc(Cl)s2)on1 ?
no (0)

Please do the same for CC(C)OC(=O)c1ccccc1 as well.
no (0)

Please do the same for COc1ccc(/C(C)=C/C(=O)O)c(OC)c1 as well.
no (0)

Please do the same for Nc1ccc(C(=O)NCC(=O)O)cc1 as well.
no (0)

Please do the same for Oc1ccc(Nc2ccccc2)cc1 as well.
yes (1)

Please do the same for O=C1CC2(CCCC2)CC(=O)N1 as well.
no (0)

Please do the same for CC(C)NNC(=O)c1ccncc1 as well.
no (0)

Please do the same for CC(=O)OCC(C)C as well.
no (0)

Please do the same for Nc1ncnc(Nc2ccccc2)n1 as well.
no (0)

Please do the same for CC(C)(C)C1=CC(=O)C(C(C)(C)C)=CC1=O as well.
yes (1)

Please do the same for C/C(=N\O)c1ccc(OCC(=O)N2CCCCC2)cc1 as well.
yes (1)

Please do the same for O=C(O)c1cc(Cl)cc(Cl)c1 as well.
no (0)

Please do the same for CCCC(=O)C(=O)O as well.
no (0)

Please do the same for OC1CCCc2ccccc21 (centres undefined) as well.
no (0)

Please do the same for CCCCCCCCCC[N+](C)(C)[O-] as well.
no (0)

Sourced from PubChem BioAssay (Tox21)
